Reference for the values: patent US20220112288A1

# system: T1, Recombinant human CD4 (R&D Systems, Cat. 10327-CD) (human, UniProt P01730 26-390, limits assumed)
# T1 construct: Bought protein; also called huCD4
# protocol: BLI (Octet Red384), purified antibody on anti-mouse Fc sensors, human CD4 100/50/25 nM, global 1:1 fit;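 note: antibodies loaded at 10 µg/mL, curves fitted across association and dissociation phases, with an unrelated mouse-derived antibody serving as internal reference control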

{"binder": "75110_11D03A (antibody, V domains shown, Tested as antibody purified from AlivaMab Mouse Kappa hybridoma (human V regions, kappa light chain, mouse Fc captured by anti-mouse Fc sensors)) VH: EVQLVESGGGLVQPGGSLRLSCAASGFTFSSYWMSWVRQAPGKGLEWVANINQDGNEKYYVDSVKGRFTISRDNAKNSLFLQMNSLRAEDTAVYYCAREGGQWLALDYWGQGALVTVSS VL: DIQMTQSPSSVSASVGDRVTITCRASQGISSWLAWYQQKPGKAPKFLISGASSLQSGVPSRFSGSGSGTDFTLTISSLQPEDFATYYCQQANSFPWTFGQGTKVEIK", "koff, s⁻¹": 0.0013}
{"binder": "75110_07H07A (antibody, V domains shown, Tested as antibody purified from AlivaMab Mouse Kappa hybridoma (human V regions, kappa light chain, mouse Fc captured by anti-mouse Fc sensors)) VH: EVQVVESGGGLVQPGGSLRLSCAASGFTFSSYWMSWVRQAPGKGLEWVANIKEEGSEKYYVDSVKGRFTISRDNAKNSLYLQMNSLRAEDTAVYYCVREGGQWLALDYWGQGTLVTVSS VL: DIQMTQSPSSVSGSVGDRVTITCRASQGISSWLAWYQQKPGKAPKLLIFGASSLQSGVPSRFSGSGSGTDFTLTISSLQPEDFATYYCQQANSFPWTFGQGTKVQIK", "koff, s⁻¹": 0.0012}
{"binder": "75110_06K03A (antibody, V domains shown, Tested as antibody purified from AlivaMab Mouse Kappa hybridoma (human V regions, kappa light chain, mouse Fc captured by anti-mouse Fc sensors)) VH: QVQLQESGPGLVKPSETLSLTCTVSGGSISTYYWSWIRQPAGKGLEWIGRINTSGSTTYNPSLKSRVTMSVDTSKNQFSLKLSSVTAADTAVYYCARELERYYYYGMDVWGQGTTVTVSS VL: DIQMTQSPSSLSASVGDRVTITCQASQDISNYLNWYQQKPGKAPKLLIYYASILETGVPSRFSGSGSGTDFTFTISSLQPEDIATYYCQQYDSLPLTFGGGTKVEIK", "koff, s⁻¹": "3.6e-05"}
{"binder": "75110_10O16A (antibody, V domains shown, Tested as antibody purified from AlivaMab Mouse Kappa hybridoma (human V regions, kappa light chain, mouse Fc captured by anti-mouse Fc sensors); also called 75110_10016A) VH: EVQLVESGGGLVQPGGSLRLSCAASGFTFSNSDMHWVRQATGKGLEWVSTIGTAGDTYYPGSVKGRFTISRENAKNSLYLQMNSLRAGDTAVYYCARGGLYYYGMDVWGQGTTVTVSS VL: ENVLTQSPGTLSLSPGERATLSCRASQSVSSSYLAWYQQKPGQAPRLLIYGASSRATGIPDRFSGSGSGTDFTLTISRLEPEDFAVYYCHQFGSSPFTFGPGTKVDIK", "koff, s⁻¹": 0.00035}
{"binder": "75110_07B16A (antibody, V domains shown, Tested as antibody purified from AlivaMab Mouse Kappa hybridoma (human V regions, kappa light chain, mouse Fc captured by anti-mouse Fc sensors)) VH: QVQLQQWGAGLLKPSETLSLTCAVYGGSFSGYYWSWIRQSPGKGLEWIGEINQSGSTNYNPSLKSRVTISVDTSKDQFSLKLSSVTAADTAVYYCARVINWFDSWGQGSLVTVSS VL: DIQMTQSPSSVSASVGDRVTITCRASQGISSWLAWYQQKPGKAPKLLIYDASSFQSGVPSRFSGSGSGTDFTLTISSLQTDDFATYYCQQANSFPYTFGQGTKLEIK", "koff, s⁻¹": 0.00043}
